Recorded Clone size (percent repertoire), IFNγ+ sorted T cells after peptide stimulation, one value per entry.
Molecular target: T1, OX747-158 (human)
T1 peptide: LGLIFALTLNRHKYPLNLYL
Test: cell-based or functional assay

# example entries with known answers
- Binder: "OX747 Peptides 157/158 clone 2 TCR (TCR, V domains shown) V domain 1: AQKVTQAQTEISVVEKEDVTLDCVYETRDTTYYLFWYKQPPSGELVFLIRRNSFDEQNEISGRYSWNFQKSTSSFNFTITASQVVDSAVYFCALSEATYNTDKLIFGTGTRLQVFP V domain 2: ETGVTQSPTHLIKTRGQQVTLRCSSQSGHNTVSWYQQALGQGPQFIFQYYREEENGRGNFPPRFSGLQFPNYSSELNVNALELDDSALYLCASSSTGTDYGYTFGSGTRLTVVE"
  Assay Result: "9.8 % of repertoire"
- Binder: "OX747 Peptides 157/158 clone 1 TCR (TCR) TCR alpha 1: KNEVEQSPQNLTAQEGEFITINCSYSVGISALHWLQQHPGGGIVSLFMLSSGKKKHGRLIATINIQEKHSSLHITASHPRDSAVYICAVSTGGATNKLIFGTGTLLAVQPNIQNPDPAVYQLRD TCR alpha 2: KNEVEQSPQNLTAQEGEFITINCSYSVGISALHWLQQHPGGGIVSLFMLSSGKKKHGRLIATINIQEKHSSLHITASHPRDSAVYICAVQEGETSGSRLTFGEGTQLTVNPDIQNPDPAVYQLRD TCR beta: NAGVTQTPKFQVLKTGQSMTLQCAQDMNHEYMSWYRQDPGMGLRLIHYSVGAGITDQGEVPNGYNVSRSTTEDFPLRLLSAAPSQTSVYFCASSPGFNGNTIYFGEGSWLTVVEDLNKVFPPEVAVFEPS"
  Assay Result: "15.5 % of repertoire"
- Binder: "OX747 Peptides 157/158 clone 4 TCR (TCR, V domains shown) V domain 1: AQKVTQAQTEISVVEKEDVTLDCVYETRDTTYYLFWYKQPPSGELVFLIRRNSFDEQNEISGRYSWNFQKSTSSFNFTITASQVVDSAVYFCALSEMNRDDKIIFGKGTRLHILP V domain 2: NAGVMQNPRHLVRRRGQEARLRCSPMKGHSHVYWYRQLPEEGLKFMVYLQKENIIDESGMPKERFSAEFPKEGPSILRIQQVVRGDSAAYFCASSPTGVSGNTIYFGEGSWLTVVE"
  Assay Result: "7.9 % of repertoire"

Please turn your attention to the following entry.
Problem: # lookup: Clone size (percent repertoire), IFNγ+ sorted T cells after peptide stimulation of OX747 Peptides 157/158 clone 5 TCR (TCR, V domains shown) V domain 1: GQQLNQSPQSMFIQEGEDVSMNCTSSSIFNTWLWYKQDPGEGPVLLIALYKAGELTSNGRLTAQFGITRKDSFLNISASIPSDVGIYFCAGQQKTSGSRLTFGEGTQLTVNP V domain 2: DGGITQSPKYLFRKEGQNVTLSCEQNLNHDAMYWYRQDPGQGLRLIYYSQIVNDFQKGDIAEGYSVSREKKESFPLTVTSAQKNPTAFYLCASSSPRDRVGQPQHFGDGTRLSILE
Solution: 7.7 % of repertoire
